assay: in vivo; details: rat, in vivo, Kp,uu,CSF Rat
Metric: Kp uu

Compound | Metric | Reported
Cc1cc(=O)n(-c2ccccc2)n1C [Antipyrine] | Kp uu | 0.944
NC(=O)N1c2ccccc2C=Cc2ccccc21 [Carbamazepine] | Kp uu | 0.752
C#Cc1cccc(Nc2ncnc3cc(OCCOC)c(OCCOC)cc23)c1 | Kp uu | 0.409
C=C[C@H]1C[N@@]2CC[C@H]1C[C@@H]2[C@@H](O)c1ccnc2ccc(OC)cc12 | Kp uu | 0.419

* * *

assay: in vivo; conditions: rat, in vivo, Kp,uu,brain Rat
Form field: Kp uu (one value per entry).

Compound | Kp uu
NC(=O)N1c2ccccc2C=Cc2ccccc21 [Carbamazepine] | 0.8
C=C[C@H]1C[N@@]2CC[C@H]1C[C@@H]2[C@@H](O)c1ccnc2ccc(OC)cc12 | 0.0359
Cc1cc(=O)n(-c2ccccc2)n1C [Antipyrine] | 0.857
C#Cc1cccc(Nc2ncnc3cc(OCCOC)c(OCCOC)cc23)c1 | 0.061
